# ASSAYED SYSTEM: T1, VEGFR2-Fc (Homo sapiens, UniProt P35968)
# T1 construct: purchased R&D Systems
# T1 sequence (P35968 with tags, fused parts or gaps limits assumed): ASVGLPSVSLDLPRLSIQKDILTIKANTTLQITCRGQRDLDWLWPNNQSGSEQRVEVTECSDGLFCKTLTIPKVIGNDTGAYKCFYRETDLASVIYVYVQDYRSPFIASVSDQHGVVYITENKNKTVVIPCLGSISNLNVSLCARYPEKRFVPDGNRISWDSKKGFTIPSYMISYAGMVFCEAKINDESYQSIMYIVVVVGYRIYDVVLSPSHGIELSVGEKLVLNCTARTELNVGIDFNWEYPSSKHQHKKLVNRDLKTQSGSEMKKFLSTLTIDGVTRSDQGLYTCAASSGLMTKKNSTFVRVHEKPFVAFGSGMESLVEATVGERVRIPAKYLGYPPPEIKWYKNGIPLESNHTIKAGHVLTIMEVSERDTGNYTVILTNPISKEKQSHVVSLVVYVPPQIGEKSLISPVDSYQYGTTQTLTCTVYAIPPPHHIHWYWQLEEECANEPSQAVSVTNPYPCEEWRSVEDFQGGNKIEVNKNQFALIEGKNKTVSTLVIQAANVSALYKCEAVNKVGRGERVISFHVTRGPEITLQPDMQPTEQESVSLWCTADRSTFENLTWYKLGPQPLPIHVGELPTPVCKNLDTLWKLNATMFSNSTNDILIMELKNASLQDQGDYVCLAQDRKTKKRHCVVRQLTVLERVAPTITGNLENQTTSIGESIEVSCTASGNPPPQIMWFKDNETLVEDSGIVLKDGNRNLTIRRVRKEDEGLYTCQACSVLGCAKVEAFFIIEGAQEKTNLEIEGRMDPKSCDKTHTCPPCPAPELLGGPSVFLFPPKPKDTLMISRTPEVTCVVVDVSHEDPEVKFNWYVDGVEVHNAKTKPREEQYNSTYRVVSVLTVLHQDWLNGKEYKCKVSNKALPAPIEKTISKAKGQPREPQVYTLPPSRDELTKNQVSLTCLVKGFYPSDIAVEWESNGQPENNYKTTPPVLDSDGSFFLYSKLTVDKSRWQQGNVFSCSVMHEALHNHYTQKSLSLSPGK
# EXPERIMENTAL PROTOCOL: Screening of anti-VEGFR2 phage clones by ELISA
# Assay type: binding
# MEASUREMENT CONTEXT: 1×10^9 cfu phage titer

{"MOLECULE": "R2PC29: phage-displayed human scFv clone binding VEGFR2; VH CDR1-3 SEQ ID NO: 16-18, VL CDR1/CDR3 SEQ ID NO: 19, 20 (antibody, V domains shown) VH: QVQLQQSGAEMKKSGSSVKVSCKASGGNFISKGISWVRQAPGQGLEWMGGIIPLFGTGNYAQKFQGRVTITADESTTTVYLQLTSLTPEDTAMYFCATADVDYSDSLEAFDMWGQGTMVTVSS VL: DIVMTQSPSSLSASVGDRVTITCRASQSINNYLNWYQQKPGKAPNLLIYGASSLQSGVPSRFRGSGSGTDFTLTISSLQPEDFATYYCQQSYSTPLFGQGTKLEIK", "binding of phage clones to VEGFR2-Fc": "bind highly"}
{"MOLECULE": "R2PC8: phage-displayed human scFv clone binding VEGFR2; VH CDR1-3 SEQ ID NO: 1-3, VL CDR1/CDR3 SEQ ID NO: 4, 5 (antibody, V domains shown) VH: QVQLVQSGGGLVKPGGSLRLSCAASGFTFSSYSMSWVRQAPGKGLEWVSSISSSSSYIYYADSVKGRFTISRDNAKNSLYLQMNSLRAEDTAVYYCARSTDAFDIWGQGTMVTVSS VL: DIVMTQSPSSLSASVGDRVTITCRASQRISNYLNWYQHKSGEDPKLLIYAASSLQSGVPSRFSGSGSGTDFTLTISSLQPEDFATYYCQQYDRYPPTFGQGTKLEIK", "binding of phage clones to VEGFR2-Fc": "bind highly"}
{"MOLECULE": "R2PC28: phage-displayed human scFv clone binding VEGFR2; VH CDR1-3 SEQ ID NO: 11-13, VL CDR1/CDR3 SEQ ID NO: 14, 15 (antibody, V domains shown) VH: EVQLVESGGALVQPGGSLRLSCVGSEFTFSHYNLHWVRQAPGKGLEWLAVISDDGRNKYYGDSVKGRFTISRDNSKNTLYLQMNGLRAEDTAVYYCARVPTVWRGGVYDIWGQGTMVTVSS VL: EIVLTQSPATLSLSPGERATLSCRASQSVGSYLAWYQQRPGQPPRLLIYDASNRATGVAARFSGSGSGTDFTLTIDSLEAEDAATYYCHQSSSLPRTFGQGTKLEIK", "binding of phage clones to VEGFR2-Fc": "bind highly"}
